target: human GalNAc-T4 (UDP-GalNAc:polypeptide N-acetylgalactosaminyltransferase T4) isolated truncated lectin domain (T4ld), HIS-tagged, amino acid residues 405-578 of GALNT4 (Homo sapiens, UniProt Q8N4A0); experiment: biochemical; conditions: binding to GalNAc-MUC1 glycopeptide
Sequence (Q8N4A0 405-578): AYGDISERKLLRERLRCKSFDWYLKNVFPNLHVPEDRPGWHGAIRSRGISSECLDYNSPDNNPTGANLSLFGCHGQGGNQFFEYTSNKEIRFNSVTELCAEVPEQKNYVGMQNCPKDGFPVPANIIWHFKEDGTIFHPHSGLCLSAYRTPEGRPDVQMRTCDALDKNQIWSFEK
Property: IC50 (mM)
Report the figure in mM without appending any unit label.

Which IC50 reading was recorded for the compound `CC(=O)N[C@H]1[C@H](Oc2ccc([N+](=O)[O-])cc2)O[C@H](CO)[C@H](O)[C@@H]1O` ? 8

----------
target: human GalNAc-T2 (UDP-GalNAc:polypeptide N-acetylgalactosaminyltransferase T2), secreted soluble enzyme (sT2), wild type (Homo sapiens, UniProt Q10471); experiment: biochemical; details: read-out: Concentration required for 50% inhibition (IC50), binding to GalNAc-MUC1 glycopeptide
Sequence (Q10471 52-571 limits assumed): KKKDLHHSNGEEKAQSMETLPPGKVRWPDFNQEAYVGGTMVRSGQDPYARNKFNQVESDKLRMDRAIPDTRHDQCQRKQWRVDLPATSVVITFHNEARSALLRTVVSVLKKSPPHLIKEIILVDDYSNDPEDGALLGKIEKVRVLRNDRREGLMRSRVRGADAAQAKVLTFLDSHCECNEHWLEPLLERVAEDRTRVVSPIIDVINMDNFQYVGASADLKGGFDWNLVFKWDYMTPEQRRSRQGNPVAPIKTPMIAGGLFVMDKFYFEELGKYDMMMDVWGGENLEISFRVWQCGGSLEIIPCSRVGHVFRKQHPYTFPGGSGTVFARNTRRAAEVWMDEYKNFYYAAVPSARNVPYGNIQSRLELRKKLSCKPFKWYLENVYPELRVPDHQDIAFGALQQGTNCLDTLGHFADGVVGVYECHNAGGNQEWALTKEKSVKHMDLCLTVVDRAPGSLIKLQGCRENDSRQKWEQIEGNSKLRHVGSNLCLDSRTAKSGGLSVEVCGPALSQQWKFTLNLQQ
Property: IC50

State the recorded IC50 for this entry: CC(=O)N[C@H]1[C@@H](Oc2ccccc2)O[C@H](CO)[C@H](O)[C@@H]1O [PhlαGalNAc] 5 mM
